system: TO-3-N3-2 (biotin conjugate); test: pull-down binding Z-score (relative to library population); higher = stronger binding; conditions: RNA library: Library-2
Where pull-down binding Z-score equals or exceeds 0.5, the correct label is rule met; where it does not, the label is rule not met.

The examples below pair each entry with its known result.
UCUGGAGUAAAAGACUGUGUUGUAUUACACAGUUACUUCACUUCAGA = rule not met
AGAGCGUGGGCUGGGGUUCAGGGACACCCUCU [hsa-mir-1229] = rule met
ACAGUGGCCACAUCUCCAC [hsa-mir-1184-3_1184-2_1184-1] = rule not met

In: Is pull-down binding Z-score for AGGUUUGUGUCCAAUACAGUCCACACCU [hsa-mir-3200] at or above 0.5?
Out: rule not met

In: Is pull-down binding Z-score for "GUAGAGGAGGCAAAGACAGUGCUUAAAAAGUGUAAAAGUGCCUUUUAC" at or above 0.5?
Out: rule not met
